Biological target: T1, human monocarboxylate transporter 1 (MCT1) (human, UniProt P53985 1-500)
T1 sequence: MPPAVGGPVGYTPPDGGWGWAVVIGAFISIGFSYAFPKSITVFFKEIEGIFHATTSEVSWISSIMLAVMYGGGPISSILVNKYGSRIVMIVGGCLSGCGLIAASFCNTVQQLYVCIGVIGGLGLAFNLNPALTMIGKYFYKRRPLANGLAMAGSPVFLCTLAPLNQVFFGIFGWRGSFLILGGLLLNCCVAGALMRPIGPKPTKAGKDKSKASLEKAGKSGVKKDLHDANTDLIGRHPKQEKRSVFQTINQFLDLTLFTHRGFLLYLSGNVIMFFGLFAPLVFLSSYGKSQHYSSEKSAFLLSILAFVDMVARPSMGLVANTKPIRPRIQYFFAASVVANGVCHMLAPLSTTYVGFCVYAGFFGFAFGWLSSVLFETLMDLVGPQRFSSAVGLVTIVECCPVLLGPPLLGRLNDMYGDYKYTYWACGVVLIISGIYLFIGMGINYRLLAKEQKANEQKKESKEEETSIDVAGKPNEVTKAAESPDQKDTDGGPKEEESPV
Assay: cell-based or functional assay
measuredAttribute: IC50 of inhibition of MCT1 mediated transport (bromopyruvate assay, HEK293T cells) (nM)

# binder, u, quantitativeReadout
data = [
    ("anti-human MCT1 antibody Ab19 (antibody, human IgG1, kappa, V domains shown, IgG1EN backbone) VH: QVQLVQSGAEVKKPGASVKVSCTVSGRSLTNYHLQWVRQAPGQGLEWMGFIRRSGNTEYNSEFKSRVTMTRDTSTSTVYMELSSLRSEDTAVYYCARNRWYHGTYYSPGYYVMDAWGQGTLVTVSS VL: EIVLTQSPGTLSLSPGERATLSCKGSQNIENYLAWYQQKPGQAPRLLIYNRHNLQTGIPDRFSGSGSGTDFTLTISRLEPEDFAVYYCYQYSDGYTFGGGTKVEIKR", "nM", 35),
    ("anti-human MCT1 antibody Ab17 (antibody, human IgG1, kappa, V domains shown, IgG1EN backbone) VH: QVQLVQSGAEVKKPGASVKVSCTVSGRSLTNIHLQWVRQAPGQGLEWMGFIRSSGNTEYNSEFKSRVTMTRDTSTSTVYMELSSLRSEDTAVYYCARNRWYHGTYYSPGYYVMDAWGQGTLVTVSS VL: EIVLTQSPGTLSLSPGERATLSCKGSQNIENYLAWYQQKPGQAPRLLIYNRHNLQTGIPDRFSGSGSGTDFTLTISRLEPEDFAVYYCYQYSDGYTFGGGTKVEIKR", "nM", 38),
    ("anti-human MCT1 antibody Ab11 (antibody, human IgG1, kappa, V domains shown, IgG1EN backbone) VH: QVQLVQSGAEVKKPGASVKVSCTVSGRSLTNYHLQWVRQAPGQGLEWMGFIRSSGNTEYNSEFKSRVTMTRDTSTSTVYMELSSLRSEDTAVYYCARNRWHHGTYYSPGYYVMDAWGQGTLVTVSS VL: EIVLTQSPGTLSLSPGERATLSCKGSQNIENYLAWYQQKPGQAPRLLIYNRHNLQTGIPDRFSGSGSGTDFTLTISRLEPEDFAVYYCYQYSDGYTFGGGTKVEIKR", "nM", 35),
    ("anti-human MCT1 antibody Ab18 (antibody, human IgG1, kappa, V domains shown, IgG1EN backbone) VH: QVQLVQSGAEVKKPGASVKVSCTVSGRSLTNYHLGWVRQAPGQGLEWMGFIRSSGNTEYNSEFKSRVTMTRDTSTSTVYMELSSLRSEDTAVYYCARNRWYHGTYYSPGYYVMDAWGQGTLVTVSS VL: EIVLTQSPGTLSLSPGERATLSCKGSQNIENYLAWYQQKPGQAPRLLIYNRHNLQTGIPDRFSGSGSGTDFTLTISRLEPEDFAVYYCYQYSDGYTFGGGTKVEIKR", "nM", 41),
]
